System name: Inadl_1, Q8NI35
Sequence (Q8NI35 113-229): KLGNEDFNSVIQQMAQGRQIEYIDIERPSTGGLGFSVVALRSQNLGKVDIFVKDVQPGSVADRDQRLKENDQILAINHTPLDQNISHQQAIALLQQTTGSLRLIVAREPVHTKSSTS
Test details: holdup assay
Design: key: below the threshold = too weak to quantify, mostly under pKd 3.1 to 4
Measurement conditions: plain residues with an end cap or a label only (N-terminal biotin on a linker: ttds)
Metric: pKd

NDPAWDETNL [ARHGEF7, Q14155]: 3.51
VDFPPKESSL [ACVR2A, P27037]: below the threshold
RLQRRRETQV [HPV18-E6, P06463]: below the threshold
SSLQSLETSV [ATP2B4, P23634]: below the threshold

Exercise: Please report the measured pKd for RHTTSTETAV [HPV30-E6, P36809]
Key: below the threshold
